// data source = ChEMBL document CHEMBL1201862

test system: SK-OV-3; assay: NCI tumour cell line growth inhibition, 48 h
Activity calls are given as the source filed them. Rule as the data show it: active = GI50 up to about 1.1 µM and inactive = higher.
Assign GI50 to each entry below.

Example results:
compound: Nc1[nH]c(=O)[nH]c(=O)c1Cc1cccc(Cl)c1
assay-system: SK-OV-3
GI50: > 100 µM (inactive)

compound: COC1C=CC(C(=O)[N+]2=Cc3[nH]c4ccccc4c3CC2)O1 (stereo unspecified)
assay-system: SK-OV-3
GI50: 52.5 µM (inactive)

compound: CC(=O)Nc1ccc(/C=c2\sc3nnc(/C=C/c4ccccc4)n3c2=O)cc1
assay-system: SK-OV-3
GI50: > 50 µM (inactive)

compound: O=C1CCNC(=O)NC1
assay-system: SK-OV-3
GI50: > 100 µM (inactive)

compound: C=CCC1=CC2(OC)C(=O)C(OC)(OC)C1C1C(OC)(OC)C(=O)C(OC)=CC12CC=C (stereo unspecified)
assay-system: SK-OV-3
GI50: 67.8 µM (inactive)

For every item below, please supply its GI50.
1. N/C(=N\O)N/N=C/c1cccc(F)c1
2. O=C1c2ccccc2-c2c1c(-c1ccc(O)cc1O)nc1ccc3ccccc3c21
3. Cc1c/c(=N/NC(=O)c2ccncc2)n2nc(N)sc2n1

OUTPUT:
55.7 µM (inactive)
> 100 µM (inactive)
> 100 µM (inactive)

For every item below, please supply its GI50.
1. CCOC(=O)c1cc(C(=O)O)c(=O)n2c1[nH]c1ccccc12
2. CCOC(=O)C1NCCc2c1[nH]c1ccccc21 (stereo unspecified)
3. COC(=O)[C@H](NC(=O)OC(C)(C)C)[C@H]1COC(C)(C)O1

OUTPUT:
1: 78.7 µM (inactive); 2: > 10 µM (inactive); 3: > 100 µM (inactive)

###

test system: Malme-3M; test: NCI tumour cell line growth inhibition, 48 h
Activity calls are given as the source filed them. No stated cut-off is given here; in the data, active = GI50 up to about 1.1 µM and inactive = higher.
Permitted responses: T for active, F for inactive

INPUT: Fill in: this test's call for COC(=O)C1=C(O)C(C(=O)OC)[C@@]2(O)[C@@H](C(=O)OC)[C@H](C)C[C@@H]1[C@@H]2C(=O)OC (some centres undefined) is ___
OUTPUT: F

INPUT: Fill in: this test's call for COc1c(OC)c(OC)c2c(=O)c(OC)c(-c3ccc4c(c3)OCO4)oc2c1OC is ___
OUTPUT: F

INPUT: Fill in: this test's call for CCOC(=O)Cc1c(Cc2[nH]c(C(=O)OCc3ccccc3)c(CC(=O)OCC)c2CC(=O)OCC)[nH]c(C(=O)OCc2ccccc2)c1CC(=O)OCC is ___
OUTPUT: F

INPUT: Fill in: this test's call for CCn1c2ccccc2c2ccc3c(c21)C(=O)c1ccccc1C3=O is ___
OUTPUT: F

INPUT: Fill in: this test's call for COc1cc(C2CC(C)(O)Oc3cc4c(cc32)OCO4)cc(OC)c1OC (centres undefined) is ___
OUTPUT: T

INPUT: Fill in: this test's call for CCOC(=O)C1(C#N)OC(=O)c2cnccc21 (centres undefined) is ___
OUTPUT: F

INPUT: Fill in: this test's call for CN(C)CCCN1C(=S)N(CCCN(C)C)c2c3cc(O)ccc3nc3c([N+](=O)[O-])ccc1c23 is ___
OUTPUT: F

###

system: SNB-75; assay: NCI tumour cell line growth inhibition, 48 h
The source made the active and inactive calls. Rule as the data show it: active = GI50 up to about 1.1 µM and inactive = higher.
Permitted responses: YES for active, NO for inactive

Example entries and their recorded answers appear below.
compound: O=[N+]([O-])c1cc2c(cc1/C=N/n1c(CO)nc3ccccc31)OCO2
category-label: NO
//
compound: CO/N=C(/C)c1cccc(Nc2nc3ccccc3c3[nH]c4ccccc4c23)c1
category-label: YES
//
compound: Nc1nc(Nc2ccccc2)sc1C(=O)c1ccco1
category-label: NO

INPUT: Fill in: this test's call for COC(=O)/C=C1/OC(c2ccccc2)=C(Cl)C1=O is ___
OUTPUT: NO

INPUT: Fill in: this test's call for O=C1CCNC(=O)NC1 is ___
OUTPUT: NO

INPUT: Fill in: this test's call for CCCCC(/C=N/NC(=N)N)CC.Cc1cc(O)c(C(C)C)cc1S(=O)(=O)O is ___
OUTPUT: NO

INPUT: Fill in: this test's call for CC(=O)/C(=C/n1ccc(=O)[nH]c1=S)C(=O)Nc1ccccc1C is ___
OUTPUT: NO

INPUT: Fill in: this test's call for COc1ccc2cc(CNCCOCCOCCNCc3ccc4cc(OC)ccc4c3)ccc2c1 is ___
OUTPUT: NO

INPUT: Fill in: this test's call for O=c1c2ccccc2c(=O)n2n1CC=CC2 is ___
OUTPUT: NO

INPUT: Fill in: this test's call for CCc1nc(N)c2nc(-c3cccs3)oc2n1 is ___
OUTPUT: NO

INPUT: Fill in: this test's call for C=C1CC(Cn2ccc(=O)[nH]c2=O)(c2ccc(-c3ccccc3)cc2)OC1=O (stereo unspecified) is ___
OUTPUT: NO

###

Assign GI50 to each entry below.
tested on: HCT-116; assay: NCI tumour cell line growth inhibition, 48 h
Calls of active or inactive are those of the source. No stated cut-off is given here; in the data, active = GI50 up to about 1.1 µM and inactive = higher.

Example results:
molecule: CC(CS(=O)(=O)Cc1ccccc1)C(N)=O (stereo unspecified)
GI50: > 100 µM (inactive)
--
molecule: NCCSc1nc(-c2ccccc2)c(-c2ccccc2)o1
GI50: 37.1 µM (inactive)
--
molecule: C=CC(O)C#Cc1cnc(OC)nc1OC (stereo unspecified)
GI50: 82.8 µM (inactive)
--
molecule: CCc1cccc(C)c1NC(=O)C(=O)CC(=O)c1ccc(Cl)s1
GI50: > 100 µM (inactive)
--
molecule: O[C@H]1[C@@H]2OC[C@@H](O)[C@H](OCc3ccccc3)[C@@](COCc3ccccc3)(O2)[C@@H]1OCc1ccccc1
GI50: 20.1 µM (inactive)

For every item below, please supply its GI50.
1. COc1cc(S(=O)(=O)Nc2ccc(-c3csc(N4C(=O)CSC4c4cccs4)n3)cc2)ccc1Cl (stereo unspecified)
2. C/C=C/COC(=O)CO[N+](=O)[O-]
3. Cc1ccc2nc(-c3ccccc3)c(N=O)n2c1

OUTPUT:
1. 31.3 µM (inactive)
2. > 100 µM (inactive)
3. 35.7 µM (inactive)

For every item below, please supply its GI50.
1. O=C(CN1CCN(Cc2ccccc2)CC1)c1ccc2[nH]c(=O)oc2c1
2. Cc1cc2[nH]c3c(C#N)c(-c4ccccc4)c(/N=N/c4cccc(C(F)(F)F)c4)c(=O)n3c2cc1C
3. CCN(CC)/C(Sc1ccccc1)=C(\C(Cl)=C(Cl)Cl)[N+](=O)[O-]

OUTPUT:
> 100 µM (inactive)
13.7 µM (inactive)
16.4 µM (inactive)

###

system: MCF7; experiment: NCI tumour cell line growth inhibition, 48 h
The source made the active and inactive calls. Cut-off read from the data, not from the text of the source: active = GI50 up to about 1.1 µM and inactive = higher.
Assign GI50 to each entry below.

Example results:
molecule: COC(=O)c1ccccc1C1CN=NC12Cc1cc3c(cc1C2=O)CCC3 (stereo unspecified)
GI50: 49.8 µM (inactive)
//
molecule: NC(=S)NNCC(=O)CC(O)(C(F)(F)F)C(F)(F)Cl (stereo unspecified)
GI50: > 100 µM (inactive)
//
molecule: Cc1ncc([N+](=O)[O-])n1CCn1ccnc1[N+](=O)[O-]
GI50: > 100 µM (inactive)
//
molecule: Cc1ccc2c3c(cnc2n1)C(=O)OCCN3C
GI50: > 100 µM (inactive)

For every item below, please supply its GI50.
1. O=C(Nc1ccc2oc(=O)c(C(=O)O)cc2c1)Oc1ccccc1
2. O=[N+]([O-])c1ccc(S(=O)(=O)N=Ic2ccccc2)cc1

OUTPUT:
["> 100 µM (inactive)", "> 100 µM (inactive)"]

###

test system: SNB-75; test: NCI tumour cell line growth inhibition, 48 h
Active and inactive are the calls of the source. Cut-off read from the data, not from the text of the source: active = GI50 up to about 1.1 µM and inactive = higher.
Permitted responses: active, inactive

Example entries and their recorded answers appear below.
compound: O=C(O)/C=N\N=c1[nH]c2ccccc2[nH]1
assay-system: SNB-75
category-label: inactive

compound: CSC(=S)N(C)NC(=O)c1cccc(C(=O)NN(C)C(=S)SC)n1
assay-system: SNB-75
category-label: inactive

compound: O=C1CCCC2=C1CC1=C(CCCC1=O)N2c1ccc([N+](=O)[O-])cc1
assay-system: SNB-75
category-label: inactive

INPUT: Fill in: this test's call for O=C1C2C3C=C4c5ccccc5N(c5ccccc5)C4(C2C(=O)N1c1ccccc1)C1C(=O)N(c2ccccc2)C(=O)C31 (stereo unspecified) is ___
OUTPUT: inactive

INPUT: Fill in: this test's call for CCOC(=O)c1csc(NC(=O)CN2CCCCC2)n1 is ___
OUTPUT: inactive

INPUT: Fill in: this test's call for CN(C)c1ccc(C2C(Cl)C(=O)N2NC(=O)c2c(Cl)c(Cl)c(Cl)c(Cl)c2-c2nc3ccccc3[nH]2)cc1 (stereo unspecified) is ___
OUTPUT: inactive

INPUT: Fill in: this test's call for CC(=O)Nc1ccc(-c2nc3ccccc3s2)cc1Br is ___
OUTPUT: inactive

INPUT: Fill in: this test's call for Cc1cccc(C(C)(C)C)c1NC(=O)CCl is ___
OUTPUT: inactive

INPUT: Fill in: this test's call for CN(C)c1ncnc2c1Cc1ccccc1C(=O)N2C is ___
OUTPUT: inactive

INPUT: Fill in: this test's call for CC(=O)c1cccc(Nc2nc3ccccc3c3occc23)c1 is ___
OUTPUT: inactive
